- studyTarget: HLA-B*3501 (human)
measuredMetric: Stability (half-life of the peptide on HLA-B*35)

Some binders with known Stability (half-life of the peptide on HLA-B*35) results, for comparison:
binder="EPAGIGILY (synthetic modified peptide) [modified Melan-A peptide 26-34 EPAGIGILY]" measvalue="> 6 h"
binder="VPLDCVLYRY (synthetic peptide) [gp100 peptide 471-480 VPLDCVLYRY]" measvalue="> 6 h"
binder="MPFATPMEAE (synthetic peptide; also called decamer 94-103) [NY-ESO-1 peptide 94-103 MPFATPMEAE]" measvalue="> 6 h"

Now look at this one.
Record request: Stability (half-life of the peptide on HLA-B*35) value, item LPSSADVEF (synthetic peptide) [tyrosinase peptide 312-320 LPSSADVEF] 6 h
